Listed here: items and their measured chromatographic logP.
Assay: log P determination by HPLC on reversed-phase column (C 18), EEC Directive 79/831 Annex V.A8
Type: physicochemical
Details: reversed-phase HPLC column (C 18), Table 2, compounds of formula (IIa); defined as for table 1
MEASURED_ATTRIBUTE: chromatographic logP

SMI: Fc1cccc2cc(Oc3ccccc3CBr)cnc12
MEASURED: 3.58
//
SMI: Fc1cccc(Oc2cnc3ccccc3c2)c1CCl
MEASURED: 3.57
//
SMI: ClCc1c(Cl)cccc1Oc1cnc2ccccc2c1
MEASURED: 3.94

* * *

Assay: log P determination by HPLC on reversed-phase column (C 18), EEC Directive 79/831 Annex V.A8
Type: physicochemical
Settings: Table 1; HPLC, 40° C., 0.1% aqueous formic acid and acetonitrile
Listed here: items and their measured logP.
MEASURED_ATTRIBUTE: logP

SMI: C=C[Si](C)(C)Cc1ccccc1Oc1cnc2c(F)cccc2c1
MEASURED: 5.45
//
SMI: C[Si](C)(C)Cc1ccccc1Oc1cnc2ccccc2n1
MEASURED: 5.36
//
SMI: C[Si](C)(C)Cc1ccccc1Nc1cnc2c(F)cccc2c1
MEASURED: 4.77
//
SMI: Cc1cccc2cc(Nc3ccc(C[Si](C)(C)C)cc3C[Si](C)(C)C)cnc12
MEASURED: 6.93
//
SMI: C[Si](C)(Cc1c(F)cccc1Oc1cnc2ccccc2c1)c1ccccc1
MEASURED: 5.91
//
SMI: C[Si](C)(C)Cc1ccccc1Nc1cnc2c(F)c(F)ccc2c1
MEASURED: 5.03
//
SMI: Cc1cccc2cc(Nc3ccc(Cl)cc3C[Si](C)(C)C)cnc12
MEASURED: 5.38
//
SMI: Cc1cccc2cc(Oc3ccccc3C[Si](C)(C)C)cnc12
MEASURED: 6.60
//
SMI: Cc1nc2c(F)c(F)ccc2nc1Oc1cccc(Cl)c1C[Si](C)(C)C
MEASURED: 6.40
//
SMI: C[Si](C)(C)Cc1ccccc1Oc1cnc2c(F)c(F)ccc2n1
MEASURED: 5.54
//
SMI: C[Si](C)(C)Cc1cc(F)ccc1Nc1cnc2c(C(F)(F)F)cccc2c1
MEASURED: 5.54
//
SMI: Cc1nc2ccccc2cc1Oc1ccc(F)cc1C[Si](C)(C)C
MEASURED: 5.01
//
SMI: C[Si](C)(C)Cc1c(F)cccc1Oc1cnc2c(F)c(F)ccc2n1
MEASURED: 5.60
//
SMI: C[Si](C)(O)Cc1c(F)cccc1Oc1cnc2ccccc2c1
MEASURED: 3.15
//
SMI: Cc1cccc2cc(Oc3ccccc3C[Si](C)(C)c3ccccc3)cnc12
MEASURED: 6.83
//
SMI: Cc1cccc2cc(Oc3cccc(F)c3C[Si](C)(C)C)cnc12
MEASURED: 6.70
//
SMI: Cc1cccc2cc(Nc3ccc(F)cc3C[Si](C)(C)c3ccccc3)cnc12
MEASURED: 4.90
//
SMI: C[Si](C)(C)Cc1ccccc1Oc1cnc2ccccc2c1
MEASURED: 5.48
//
SMI: C=C[Si](C)(C)Cc1c(Cl)cccc1Oc1cnc2ccccc2c1
MEASURED: 6.11
//
SMI: Cc1nc2c(F)c(F)ccc2cc1Oc1ccc(F)cc1C[Si](C)(C)C
MEASURED: 5.92
//
SMI: Cc1nc2ccccc2cc1Oc1ccc(Cl)cc1C[Si](C)(C)C
MEASURED: 5.71
//
SMI: C[Si](C)(C)Cc1c(Cl)cccc1Oc1cnc2ccccc2c1
MEASURED: 6.17
//
SMI: C[Si](C)(C)Cc1ccc(Nc2cnc3c(C(F)(F)F)cccc3c2)c(C[Si](C)(C)C)c1
MEASURED: 7.36
//
SMI: C[Si](C)(C)Cc1ccccc1Oc1cnc2c(F)cccc2n1
MEASURED: 5.26
//
SMI: C[Si](C)(C)Cc1c(F)cccc1Oc1cnc2ccccc2c1
MEASURED: 5.54
//
SMI: C[Si](C)(Cc1cc(Cl)ccc1Nc1cnc2ccccc2c1)c1ccccc1
MEASURED: 4.69
//
SMI: C[Si](C)(Cc1c(Cl)cccc1Oc1cnc2ccccc2c1)c1ccccc1
MEASURED: 6.43
//
SMI: Cc1nc2c(F)c(F)ccc2nc1Oc1c(F)cccc1C[Si](C)(C)C
MEASURED: 5.87
//
SMI: C[Si](C)(Cc1ccccc1Oc1cnc2c(F)cccc2c1)c1ccccc1
MEASURED: 5.78
//
SMI: C[Si](C)(C)Cc1ccccc1Cc1cnc2ccccc2c1
MEASURED: 4.28
//
SMI: C[Si](C)(C)Cc1ccccc1Oc1cnc2c(C(F)(F)F)cccc2n1
MEASURED: 5.97
//
SMI: Cc1nc2ccccc2nc1Oc1ccccc1C[Si](C)(C)C
MEASURED: 5.59
//
SMI: COc1ccc([Si](C)(C)Cc2c(F)cccc2Oc2cnc3ccccc3c2)cc1
MEASURED: 5.65
//
SMI: C=C[Si](C)(C)Cc1c(F)cccc1Oc1cnc2ccccc2c1
MEASURED: 5.57
//
SMI: COc1ccccc1[Si](C)(C)Cc1c(Cl)cccc1Oc1cnc2ccccc2c1
MEASURED: 6.50
//
SMI: Cc1cccc2cc(Oc3cccc(F)c3C[Si](C)(C)c3ccccc3)cnc12
MEASURED: 6.90
//
SMI: COc1ccc([Si](C)(C)Cc2c(Cl)cccc2Oc2cnc3ccccc3c2)cc1
MEASURED: 6.20
//
SMI: C[Si](C)(C)Cc1ccccc1Oc1cnc2c(F)c(F)ccc2c1
MEASURED: 5.72
//
SMI: C[Si](C)(C)Cc1cc(Cl)ccc1Nc1cnc2c(C(F)(F)F)cccc2c1
MEASURED: 6.00
//
SMI: C[Si](C)(C)Cc1c(F)cccc1Oc1cnc2c(C(F)(F)F)cccc2n1
MEASURED: 6.04
